Provide the reported EC50 of each item.
- Tested on: CEM cells HIV-1 protection, formazan growth assay
- test_method_notes: NCI AIDS Antiviral Assay

Requested field: EC50. Item: "Cc1cc2c(cc1C)Nc1oc3ccc4ccccc4c3c(=O)c1C=N2"
> 200 µM

Return reported EC50; argument: "NS(=O)(=O)c1ccc(N=Nc2c(O)n(-c3ccccc3)n(-c3ccccc3)c2=O)cc1"
> 200 µM

Which EC50 value is on record for "CCOC(=O)c1c(C)c(=O)cnc2c(C#N)cnn12" ?
> 115 µM

Given the compound "O=C(N/N=C\c1ccc([N+](=O)[O-])cc1)c1ccccc1Nc1ccccc1C(=O)N/N=C/c1ccc([N+](=O)[O-])cc1" , what is its reported EC50?
91.2 µM

Return reported EC50; argument: "CN(C)C(=S)SN(C)C(=O)Nc1ccccc1"
> 200 µM

// EC50 lookup, key: "CC1(C)C(=O)N(O)C(C)(C)N1N=O"
> 200 µM

# EC50 lookup, item "CCCCCCCCCCOCCC(=O)O"
> 200 µM

What value of EC50 has been reported for the following compound? CCOC(=O)C1(C#N)C(C#N)(C#N)C1(CC)CC (stereo not given)
> 200 µM

Can you share its EC50? I mean this compound: CC1C(=O)OC2CCC3(C)C(=O)OC4OC5(c6ccoc6)CC1(O)C2(C)C43O5 (stereo not given)
> 200 µM

Fill in: EC50 of "CCOC(=O)c1sc2c(c1OC(=O)c1cc(OC)c(OC)c(OC)c1)c(=O)n(-c1ccccc1)c(=S)n2-c1ccccc1" is ___
> 200 µM

###

- Tested on: CEM cells HIV-1 protection, formazan growth assay
- test_method_notes: NCI AIDS Antiviral Assay
measurement_label: EC50

Fill in: EC50 of "NC(N)=NCCN1CCCCCCC1" is ___
> 200 µM

Would you mind telling me what EC50 value was observed for "N#C/C(N)=C(\C#N)N=CNc1ccccc1N" ?
> 200 µM

For C/C=C1/CC(C(=O)OC)N(C(=O)OCc2ccccc2)C1=S (centres undefined) , what is its reported EC50?
> 200 µM

Quick one: EC50 for "O=C(O)c1ccc([C@@H]2C(=O)N(O)[C@@H]3C=CC[C@@H]32)cc1" ?
> 347 µM

Which value of EC50 has been reported for "CCOC(=O)CCCSCCCC(=O)CCCSCCCC(=O)OCC" in the records?
> 447 µM

Query (molecule): "CCOC(=O)Nc1ccc2nc(Sc3ccc(C)cc3)sc2c1" ; field requested: EC50
> 20.9 µM

Recorded EC50 for "CC(C)(C)CC(C)(C)c1cc2c(O)c(c1)Cc1cc(C(C)(C)CC(C)(C)C)cc(c1O)Cc1cc(C(C)(C)CC(C)(C)C)cc(c1O)Cc1cc(C(C)(C)CC(C)(C)C)cc(c1O)Cc1cc(C(C)(C)CC(C)(C)C)cc(c1O)C2" , please?
> 8.71 µM

What value of EC50 has been recorded for this entry: "COc1ccc(/C=C/C(=O)OCCc2ccccc2)cc1O"
> 8.32 µM

Tell me the measured EC50 of "COc1cc(C)cc2c(-c3c(OC(C)=O)cc(OC(C)=O)c4c3C[C@H](C)N(C(C)=O)[C@H]4C)cc(-c3cc(-c4c(OC(C)=O)cc(OC(C)=O)c5c4C[C@H](C)N(C(C)=O)[C@H]5C)c4cc(C)cc(OC)c4c3O)c(O)c12" , please.
> 200 µM

###

Assign pEC50 to each entry below.
- Test system: CEM cells HIV-1 protection, formazan growth assay
- test_method_notes: NCI AIDS Antiviral Assay
pEC50: −log10 of the molar value.

// returns reported pEC50 for input "N#Cc1c(N)n(-c2cccc(C(=O)O)c2)c(=O)c2cc([N+](=O)[O-])ccc12"
< 3.70

Field request: pEC50 | item: "Cc1ccc(S(=O)(=O)n2ccc(-c3ccc4ccn(S(=O)(=O)c5ccc(C)cc5)c4c3)c2)cc1"
< 3.70

For the molecule COC(=O)N1CC(=O)C(C(=O)NC23CC4CC(CC(C4)C2)C3)C1 (stereo unspecified) , what pEC50 is on record?
< 3.11

Entry "CCCCc1ccc(Nc2cc(=O)n(C)c(=O)[nH]2)cc1" has what pEC50?
< 3.70

What value of measured pEC50 is listed for "CSc1n[nH]c(N)c1C(=O)Nc1ccc(Cl)cc1" ?
6.34

# query: pEC50 of entry CC1CC(c2ccc(Cl)cc2)=Nc2ccccc2S1 (stereo unspecified)
< 5.16

###

- System: CEM cells HIV-1 protection, formazan growth assay
- test_method_notes: NCI AIDS Antiviral Assay
- Procedure: The ability of compounds to protect human CEM cells from HIV-1 infection is measured as a screen for new compounds capable of inhibiting the HIV virus. Five concentrations of drug were tested on uninfected and infected cells and cell growth was measured using a soluble formazan assay. […] Compounds that provided at least 50% protection were retested. Compounds that provided at least 50% protection on retest were listed as moderately active. […]
I'd be grateful if you could share measured EC50 for these entries.

Data request, read-out EC50, for "CCc1n[nH]c(=O)n1-c1ccc2ccccc2c1"
> 100 µM

Which EC50 value is on record for CCOC(=O)C(C(=S)Nc1ccccc1)c1nn2c(=O)cc(C)nc2s1 (stereo unspecified) ?
> 200 µM

GET /values?readout=EC50&item= "CCC(=O)NC(Nc1cccc(F)c1)(C(F)(F)F)C(F)(F)F"
> 200 µM

Entry "Cc1ccc(-c2csc(=Nc3c(C)n(C)n(-c4ccccc4)c3=O)n2CCO)cc1" has what EC50?
> 200 µM

Give its EC50 value. Item: Cc1cccc2c1CC1(Cc3ccccc3C1=O)C2=O (stereo unspecified)
> 200 µM

Recorded EC50 of CC1CCc2c(c(CC3CC(=O)NC(=O)C3)nn2-c2ccccc2)C1 (stereo unspecified) , please.
> 200 µM

###

- System: CEM cells HIV-1 protection, formazan growth assay
- test_method_notes: NCI AIDS Antiviral Assay
- measurement_parameters: measured here: growth of uninfected CEM cells
pIC50: −log10 of the molar value.
Would you kindly list pIC50 for each of these compounds?

Param item = "COCn1cc(C2=C(C)C(=O)C(C)=C(C)C2=O)cn1" ; retrieve measured pIC50.
5.22

Can you share its pIC50? I mean this compound: O=C(O)C1CCCN1C(=O)c1ccccn1 (stereo unspecified)
< 3.70

Find the recorded pIC50 belonging to "N#C/C(=C\c1ccccc1)c1ccc(Cl)cc1" and report it.
4.24

Entry "CCn1c2ccccc2c2c(-c3ccccc3)cc3c(c21)C(=O)N(c1ccccc1)C3=O" has what pIC50?
< 5.18

Returns the measured pIC50 for the input compound. Input: "CC(C)(C)c1cc(Nc2ccc([N+](=O)[O-])cc2[N+](=O)[O-])cc(C(C)(C)C)c1O"
< 4.87

# lookup: pIC50 of O=C1C2C(C(=O)N1Cc1ccccc1)N(Cc1ccccc1)C(=O)N2Cc1ccccc1 (stereo unspecified)
< 4.91

###

- System: CEM cells HIV-1 protection, formazan growth assay
- test_method_notes: NCI AIDS Antiviral Assay;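 active means compounds giving half or more protection of infected cells from virus-caused growth loss, again on retest; inactive means the rest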
Result category, one only: TRUE = active, FALSE = inactive

Outcome? "O=C1C=CC(=O)N1n1c(Cc2ccccc2)n[nH]c1=O"
FALSE

Returns: the outcome recorded for "CC(=O)Oc1ccc2c(-c3ccccc3)c(Oc3ccc(Cl)cc3)c(=O)oc2c1" in this assay.
FALSE

For this compound, state the assay outcome: "N#Cc1c(-c2ccccc2)c(-c2ccccc2)cc2c(=O)c3ccc(Cl)cc3[nH]c12"
FALSE

Hi, do you know how "O=[N+]([O-])c1ccccc1-c1nc2nc(N3CCOCC3)nc(N3CCOCC3)n2n1" came out in this test?
FALSE

I would be grateful if you could indicate the recorded call for "O=C(O)C(CP(=O)(O)O)=C(Cl)Cl" .
FALSE

Test call, this compound: C/C=C(\C)C(=O)N1c2ccccc2CC1c1c(C)[nH]c2ccccc12 (configuration not stated)
FALSE

Dear all, I need the recorded test outcome for COc1ccccc1C(=O)OCC1CCCN2CCCCC12 (configuration not stated) , thank you.
FALSE

What call does the record list for "Cc1cc2c(c(C(=O)NCCC(=O)N[C@@H](C)C(=O)OCc3ccccc3)c1)Oc1c(cc(C)cc1C(=O)NCCC(=O)N[C@@H](C)C(=O)OCc1ccccc1)S2" ?
FALSE

// param item: "Cc1nc(C(=O)O)c(C(=O)O)[nH]1" ; yields the recorded call
FALSE

Could you please tell me the result logged for "O=c1c2cc3c(=O)n(CCc4ccccc4CO)c(=O)c3cc2c(=O)n1CCc1ccccc1CO" in this assay?
FALSE

Could you check what this test reported for "Nc1nc(=O)nc2[nH]c3c4cccc5cccc(c3nc12)c54" ?
FALSE

# fetch the recorded call for "O=C(c1ccccc1)c1ccc(OCCOc2ccc(Nc3ccccc3)cc2)cc1" here
FALSE

Recorded call for "CSSc1ccccc1" ?
FALSE

Could you check what this test reported for "CCOP(=O)(OCC)c1cc(-c2ccccc2)ccc1N" ?
FALSE

Give the logged outcome of this assay for the following compound: "C1CN(P(N2CCOCC2)N2CCOCC2)CCO1"
FALSE

Given "CC1=C(C(=O)Nc2ccc([N+](=O)[O-])cc2)C(c2cccc([N+](=O)[O-])c2)C(C(=O)Nc2ccc([N+](=O)[O-])cc2)=C(C)N1" , state the outcome it received in this test.
FALSE

I'd appreciate the recorded outcome for "CC(C)(C)c1cc(CCC(=O)Nc2ccc(Cl)cc2Cl)nc(N)n1" from this test.
FALSE

Assay outcome for "O=c1[nH]c2ccccc2c(=O)c2ccccc12" : what was it?
FALSE

Recorded call for CC1C2C1C1C3NN=CC3C2n2c(=O)n(-c3ccccc3)c(=O)n21 (configuration not stated) ?
FALSE

Name the outcome recorded for Cc1cn(C2CC(NO)C(CO[Si](C)(C)C(C)(C)C)O2)c(=O)[nH]c1=O (configuration not stated) in the assay.
FALSE

Recorded test call requested for Nc1nc2c(ncn2C2C=CC(CO)C2)c(=O)[nH]1 (configuration not stated)
TRUE

Status in this test for "C=C(C)c1nc(C#N)c(N)o1" ?
FALSE

Data origin, for the record: PubChem BioAssay AID179
